# system_tested: full-length NS3/NS4A-2 (HCV NS3 protease) (Hepatitis C virus genotype 1a, UniProt P27958)
# Construct: Recombinant E. coli or Baculovirus full-length NS3 was diluted to 3.33 μM with assay buffer; made in house; host or cells: E. coli or baculovirus (BV) expression system
# Sequence (P27958 1027-1657): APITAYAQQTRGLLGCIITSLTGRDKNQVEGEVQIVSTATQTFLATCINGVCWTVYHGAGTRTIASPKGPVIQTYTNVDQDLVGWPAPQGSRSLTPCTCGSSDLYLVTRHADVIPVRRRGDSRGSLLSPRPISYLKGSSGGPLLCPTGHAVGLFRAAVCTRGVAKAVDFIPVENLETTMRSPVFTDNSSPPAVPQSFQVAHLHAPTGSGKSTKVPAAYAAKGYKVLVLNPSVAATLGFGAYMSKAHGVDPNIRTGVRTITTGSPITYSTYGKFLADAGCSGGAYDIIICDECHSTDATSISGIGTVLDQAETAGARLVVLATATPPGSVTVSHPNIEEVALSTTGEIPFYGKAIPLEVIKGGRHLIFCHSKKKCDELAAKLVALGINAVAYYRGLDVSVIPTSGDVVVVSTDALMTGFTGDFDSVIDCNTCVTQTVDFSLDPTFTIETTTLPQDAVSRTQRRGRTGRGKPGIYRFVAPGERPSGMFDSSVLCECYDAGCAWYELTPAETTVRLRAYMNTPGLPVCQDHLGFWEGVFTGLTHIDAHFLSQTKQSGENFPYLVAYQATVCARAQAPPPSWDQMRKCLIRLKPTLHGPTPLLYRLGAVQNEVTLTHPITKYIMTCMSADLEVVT
# protocol: NS3-NS4 protease assay / NS3 inhibition assay (RETS1 substrate, fluorescence kinetic read)
# Type: biochemical
# protocol_conditions: recombinant E. coli or Baculovirus full-length NS3 with NS4A-2; read-out: NS3-NS4 IC50
Listed here are compounds together with their documented IC50.

Some compounds with known IC50 results, for comparison:
compound	value_observed
O=C1N[C@]2(C(=O)NS(=O)(=O)C3CC3)C[C@H]2/C=C\CCCCC[C@H](Nc2c(NCC(F)(F)F)c(=O)c2=O)C(=O)N2C[C@H](OC(=O)N3Cc4cccc(F)c4C3)C[C@@H]12	< 100 nM
CC[C@@H]1C[C@H]2C(=O)N[C@]3(C(=O)NS(=O)(=O)Nc4ccc(Cl)cc4)C[C@H]3/C=C\CCCCC[C@H](NC(=O)C3CC3)C(=O)N2C1	< 10000 nM
O=C(N[C@H]1CCC(F)(F)CC/C=C\[C@@H]2C[C@@]2(C(=O)NS(=O)(=O)C2CC2)NC(=O)[C@@H]2C[C@@H](OC(=O)N3Cc4cccc(F)c4C3)CN2C1=O)OC1CCCC1 [Compound 1004]	< 100 nM

Ask: Please look up its IC50: CNC(=O)[C@H](NC(=O)[C@@]12C[C@H]1/C=C\CCCCC[C@H](NC(=O)OC(C)(C)C)C(=O)N1C[C@H](OC(=O)N3Cc4cccc(F)c4C3)C[C@H]1C(=O)N2)c1ccc(F)cc1
Result: < 1000 nM

Ask: If you can, please state the reported IC50 value of CC(C)(C)OC(=O)N[C@H]1CCCCC/C=C\[C@@H]2C[C@@]2(C(=O)NS(=O)(=O)Nc2ccc(C#N)cc2)NC(=O)[C@@H]2CCCN2C1=O .
Result: < 1000 nM

----------
# IC50 per record follows
# system_tested: full-length NS3/NS4A-2 (HCV NS3 protease) (Hepatitis C virus genotype 1a, UniProt P27958)
# Construct: Recombinant E. coli or Baculovirus full-length NS3 was diluted to 3.33 μM with assay buffer; made in house; host or cells: E. coli or baculovirus (BV) expression system
# protocol: NS3-NS4 protease assay / NS3 inhibition assay (RETS1 substrate, fluorescence kinetic read)
# Assay type: biochemical
# protocol_conditions: recombinant E. coli or Baculovirus full-length NS3 with NS4A-2; read-out: NS3-NS4 IC50

Use the examples below as a reference point.
molecule	IC50
CCCNC(=O)[C@@]12C[C@H]1/C=C\CCCCC[C@H](N)C(=O)N1C[C@H](OC(=O)N3Cc4cccc(F)c4C3)C[C@H]1C(=O)N2 [Compound 621]	> 10000 nM
O=C(CCC(F)(F)F)N[C@H]1CCCCC/C=C\[C@@H]2C[C@@]2(C(=O)O)NC(=O)[C@@H]2C[C@@H](OC(=O)N3Cc4ccccc4C3)CN2C1=O [Compound 136]	< 100 nM

Ask: Consider the molecule CC(C)(C)OC(=O)NC1CCCCCCCC=CC2CC2(C(=O)NS(=O)(=O)C(F)(F)F)NC(=O)C2CCCN2C1=O (stereo not drawn) [Compound 2107] and give its measured IC50.
Result: < 1000 nM

Ask: Fill in the blank: the reported IC50 of CNS(=O)(=O)NC(=O)[C@@]12C[C@H]1/C=C\CCCCC[C@H](NC(=O)OC(C)(C)C)C(=O)N1CCC[C@H]1C(=O)N2 [Compound 2213] is ____.
Result: < 10000 nM

Ask: So what's the measured IC50 for this one? CC(NC(=O)[C@@]12C[C@H]1/C=C\CCCCC[C@H](NC(=O)OC(C)(C)C)C(=O)N1C[C@H](OC(=O)N3Cc4cccc(F)c4C3)C[C@H]1C(=O)N2)c1ccncc1 (stereo partly drawn) [Compound 618]
Result: < 100 nM

Ask: # IC50 lookup, item CC(C)(C)OC(=O)N[C@H]1CCCCC/C=C\[C@@H]2C[C@@]2(C(=O)N[S@@+]([O-])C(C)(C)C)NC(=O)[C@@H]2CCCN2C1=O [Compound 2401]
Result: < 100 nM

----------
# system_tested: full-length NS3/NS4A-2 (HCV NS3 protease) (Hepatitis C virus genotype 1a)
# Construct: Recombinant E. coli or Baculovirus full-length NS3 was diluted to 3.33 μM with assay buffer; made in house; host or cells: E. coli or baculovirus (BV) expression system
# protocol: NS3-NS4 protease assay / NS3 inhibition assay (RETS1 substrate, fluorescence kinetic read)
# Type: biochemical
# protocol_conditions: recombinant E. coli or Baculovirus full-length NS3 with NS4A-2; read-out: NS3-NS4 IC50
pIC50: −log10 of the molar value.
readout_type: pIC50

Use these answered entries as a reference point.
compound	value_observed
CC(C)(C)OC(=O)N[C@H]1CCCCC/C=C\[C@@H]2C[C@@]2(C(=O)NCc2cccc(C(O)C(F)(F)F)c2)NC(=O)[C@@H]2C[C@@H](OC(=O)N3Cc4cccc(F)c4C3)CN2C1=O (stereo partly shown) [Compound 605]	> 6.00
CC(C)(C)OC(=O)N[C@H]1CCCCC/C=C\[C@@H]2C[C@@]2(C(=O)NS(=O)(=O)Cc2cccc(Cl)c2)NC(=O)[C@@H]2CCCN2C1=O [Compound 2118]	> 6.00
CC(C)(C)OC(=O)N[C@H]1CCCCC/C=C\[C@@H]2C[C@@]2(C(=O)NS(=O)(=O)c2ccc(Cl)s2)NC(=O)[C@@H]2CCCN2C1=O [Compound 2132]	> 5.00

Ask: What value of pIC50 on full-length NS3/NS4A-2 (HCV NS3 protease) (Hepatitis C virus genotype 1a) does O=C(N[C@H]1CCCCC/C=C\[C@@H]2C[C@@]2(C(=O)NS(=O)(=O)c2cc(Cl)sc2Cl)NC(=O)[C@@H]2C[C@@H](OC(=O)N3Cc4cccc(F)c4C3)CN2C1=O)OC1CCCC1 [Compound 173] have?
Result: > 7.00

Ask: Recorded pIC50 for CC(C)(C)OC(=O)N[C@H]1CCCCC/C=C\[C@@H]2C[C@@]2(C(=O)NS(=O)(=O)c2ccc(Cl)s2)NC(=O)[C@@H]2C[C@@H](OC(=O)N3Cc4cccc(Cl)c4C3)CN2C1=O [Compound 164] with full-length NS3/NS4A-2 (HCV NS3 protease) (Hepatitis C virus genotype 1a), please?
Result: > 7.00

Ask: For full-length NS3/NS4A-2 (HCV NS3 protease) (Hepatitis C virus genotype 1a), provide pIC50 of CC(C)(C)OC(=O)N[C@H]1CCCCC/C=C\[C@@H]2C[C@@]2(C(=O)NCC#N)NC(=O)[C@@H]2C[C@@H](OC(=O)N3Cc4cccc(F)c4C3)CN2C1=O [Compound 615] please.
Result: > 6.00

Ask: For the record CC(C)(C)OC(=O)N[C@H]1CCCCC/C=C\[C@@H]2C[C@@]2(C(=O)NC(=O)C2CC2)NC(=O)[C@@H]2C[C@@H](OC(=O)N3Cc4ccccc4C3)CN2C1=O [Compound 701] , what value of pIC50 is listed for full-length NS3/NS4A-2 (HCV NS3 protease) (Hepatitis C virus genotype 1a)?
Result: > 7.00

Ask: I'm curious: which pIC50 was measured for O=C(N[C@H]1CCCCC/C=C\[C@@H]2C[C@@]2(C(=O)NS(=O)(=O)N(CC(F)(F)F)CC(F)(F)F)NC(=O)[C@@H]2C[C@@H](OC(=O)N3Cc4cccc(F)c4C3)CN2C1=O)OC1CCCC1 [Compound 224] tested on full-length NS3/NS4A-2 (HCV NS3 protease) (Hepatitis C virus genotype 1a)?
Result: > 6.00

Ask: Notebook: pull reported pIC50 for full-length NS3/NS4A-2 (HCV NS3 protease) (Hepatitis C virus genotype 1a), entry CC(C)(C)OC(=O)N[C@H]1CCCCC/C=C\[C@@H]2C[C@@]2(C(=O)N[C@H]2CCS(=O)(=O)C2)NC(=O)[C@@H]2C[C@@H](OC(=O)N3Cc4cccc(F)c4C3)CN2C1=O [Compound 634]
Result: > 6.00

Ask: What is its pIC50 for full-length NS3/NS4A-2 (HCV NS3 protease) (Hepatitis C virus genotype 1a)? Entry: CC(C)(C)OC(=O)N[C@H]1CCN(CC(F)(F)F)CC/C=C\[C@@H]2C[C@@]2(C(=O)NS(=O)(=O)C2CC2)NC(=O)[C@@H]2C[C@@H](OC(=O)N3Cc4cccc(F)c4C3)CN2C1=O [Compound 1032]
Result: > 7.00

----------
This section presents molecules with their documented IC50 values.
# system_tested: full-length NS3/NS4A-2 (HCV NS3 protease) (Hepatitis C virus genotype 1a)
# Construct: Recombinant E. coli or Baculovirus full-length NS3 was diluted to 3.33 μM with assay buffer; made in house; host or cells: E. coli or baculovirus (BV) expression system
# protocol: NS3-NS4 protease assay / NS3 inhibition assay (RETS1 substrate, fluorescence kinetic read)
# Assay type: biochemical
# protocol_conditions: recombinant E. coli or Baculovirus full-length NS3 with NS4A-2; read-out: NS3-NS4 IC50

molecule	IC50
CC1CCCN1S(=O)(=O)NC(=O)[C@@]12C[C@H]1/C=C\CCCCC[C@H](NC(=O)OC(C)(C)C)C(=O)N1CCC[C@H]1C(=O)N2 (stereo partly drawn) [Compound 2250]	< 10 µM
CN(C)CCOc1ccc2c(c1)CN(C(=O)O[C@@H]1C[C@H]3C(=O)N[C@]4(C(=O)O)C[C@H]4/C=C\CCCCC[C@H](NC(=O)OC4CCCC4)C(=O)N3C1)C2 [Compound 133]	< 0.1 µM
CC1CCCC(C)N1S(=O)(=O)NC(=O)[C@@]12C[C@H]1/C=C\CCCCC[C@H](NC(=O)OC(C)(C)C)C(=O)N1CCC[C@H]1C(=O)N2 (stereo partly drawn) [Compound 2223]	< 1 µM
CC(C)(C)OC(=O)N[C@H]1CCCCC/C=C\[C@@H]2C[C@@]2(C(=O)O)NC(=O)C2Cc3ccccc3CN2C1=O (stereo partly drawn) [Compound 2001]	> 10 µM
C[C@H](NS(=O)(=O)NC(=O)[C@@]12C[C@H]1/C=C\CCCCC[C@H](NC(=O)OC(C)(C)C)C(=O)N1CCC[C@H]1C(=O)N2)c1ccccc1 [Compound 416]	< 10 µM

Below: the item to evaluate.
Ask: Consider the molecule CC(C)(C)OC(=O)N[C@H]1CCCCC/C=C\[C@@H]2C[C@@]2(C(=O)NS(=O)(=O)c2ccc(Br)cc2)NC(=O)[C@@H]2CCCN2C1=O [Compound 2131] and give its measured IC50.
Result: < 10 µM
